Test system: CCRIS mutagenicity, Ames/micronucleus/aberration tests
ASSAY_NAME: CCRIS mutagenicity studies
APPLIED_CONDITIONS: Test System: AMES SALMONELLA TYPHIMURIUM; Strain/Indicator: YG1024; Metabolic Activation: NONE; Method: STANDARD PLATE
Activity calls are given as the source filed them. The rule behind the calls is not given here.
The reply should be one of these categories: TRUE = active, FALSE = inactive

Tell me the recorded outcome of this test for O=[N+]([O-])c1ccc(Cl)c([N+](=O)[O-])c1 .
TRUE

Others:
Tell me the recorded outcome of this test for O=[N+]([O-])c1ccc(Oc2c(Cl)cc(Cl)cc2Cl)cc1 .
FALSE

And for O=[N+]([O-])c1cc2cccc([N+](=O)[O-])c2c2ccccc12 ?
TRUE

And for CC(=O)Nc1ccc2ccc3ccc(O)c4ccc1c2c34 ?
FALSE

And for O=[N+]([O-])c1cccc2c1ccc1ccccc12 ?
TRUE

* * *

System: CCRIS mutagenicity, Ames/micronucleus/aberration tests
ASSAY_NAME: CCRIS mutagenicity studies
APPLIED_CONDITIONS: Test System: E. COLI B; Strain/Indicator: HS30R; Metabolic Activation: NONE
Calls of active or inactive are those of the source. No rule for the calls is given here.
PROPERTY_LABEL: mutagenic call

Return reported mutagenic call; argument: CCCCN(N=O)C(N)=O
active; positive

And for NC(=O)N(CCBr)N=O ?
active; positive

And for NC(=O)N(CCO)N=O ?
active; positive

And for NC(=O)N(CCCC(=O)O)N=O ?
active; positive

* * *

Test system: CCRIS mutagenicity, Ames/micronucleus/aberration tests
ASSAY_NAME: CCRIS mutagenicity studies
APPLIED_CONDITIONS: Test System: E. COLI; Strain/Indicator: WP2 (HCR); Metabolic Activation: NONE; Method: STANDARD PLATE
Calls of active or inactive are those of the source. The rule behind the calls is not given here.
The reply should be one of these categories: 1.0 (active), 0.0 (inactive)

Consider the following illustrative entries.
Tell me the recorded outcome of this test for CN[C@H]1[C@@H](O[C@@H]2C3CC#CC4O[C@@]4(C4COC(=O)O4)C#CC3=C[C@H]2OC(=O)c2c(O)ccc3c(C)cc(OC)cc23)O[C@H](C)[C@H](O)[C@@H]1O (some centres undefined) .
1.0

And for CN(N=O)C(=O)N[C@@H](C=O)[C@@H](O)[C@H](O)[C@H](O)CO ?
1.0

And for C1CN1c1nc(N2CC2)nc(N2CC2)n1 ?
1.0

Others:
Tell me the recorded outcome of this test for CC[C@]1(O)C[C@@H]2CN(CCc3c([nH]c4ccccc34)[C@@](C(=O)OC)(c3cc4c(cc3OC)N(C)[C@H]3[C@@](O)(C(=O)OC)[C@H](OC(C)=O)[C@]5(CC)C=CCN6CC[C@]43[C@@H]65)C2)C1 .
0.0

* * *

System: CCRIS mutagenicity, Ames/micronucleus/aberration tests
ASSAY_NAME: CCRIS mutagenicity studies
APPLIED_CONDITIONS: Test System: AMES SALMONELLA TYPHIMURIUM; Strain/Indicator: TA100; Metabolic Activation: RAT, LIVER, S-9, AROCLOR 1254
Active and inactive are the calls of the source. How the calls were made is not given here.
The reply should be one of these categories: 1 for active, -1 for inactive

Consider the following illustrative entries.
Tell me the recorded outcome of this test for O=[N+]([O-])c1ccc2c(ccc3c4ccccc4ccc23)c1 .
1

And for O=[N+]([O-])c1ccc2c(c1)CCc1cc3c(cc1-2)CCCC3 ?
1

And for Cc1ccc2cc3c(cc2c1)-c1cccc2cccc-3c12 ?
1

Others:
Tell me the recorded outcome of this test for Cc1cccc2cc3c4c(cccc4c12)-c1ccccc1-3 .
1

And for Oc1cc(Cl)c(Cl)cc1Cl ?
-1

And for FC(F)(F)C(F)(F)C(F)(F)C(F)(F)I ?
-1

And for CCSC(=O)N1CCCCCC1 ?
-1

And for Cc1ccc2c3c(cc4ccccc4c13)-c1ccccc1-2 ?
1
